# assay-explanation: NCI Yeast Anticancer Drug Screen. Data for the rad50 strain (AID 155);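 further: 0% = growth of vehicle-only cultures of the same strain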
# condition-parameters: S. cerevisiae rad50 strain growth inhibition; at 50.0 µM; stronger effect = higher value
Compounds without any hit were thinned out: in the full panel of roughly 79,000, 15% have a hit.

compound: N#CC(c1cc2c(cc1Br)OCO2)N1CCOCC1 (stereo unspecified)
growth inhibition, %: 17.5
//
compound: CC(C)CC1=C(C(=O)c2ccoc2)CC(C)C1 (stereo unspecified)
growth inhibition, %: 6.55
//
compound: C/C(=C\c1ccccc1)C(=O)c1c(C)cc(C)cc1C
growth inhibition, %: 26.9
//
compound: C=CCCCCCCCCC(=O)N1CCN(C)CC1
growth inhibition, %: 46.1
//
compound: c1ccc(Cn2nnc(-c3ccccc3)n2)cc1
growth inhibition, %: 19.3
//
compound: CC(C(=O)O)/C(=C\c1ccccc1)C(=O)O (stereo unspecified)
growth inhibition, %: 16.6
//
compound: N#CC(F)(F)C(F)(F)C(F)(F)C(F)(F)C(F)(F)C(F)(F)C(F)(F)F
growth inhibition, %: 33.5
//
compound: CC(C)CNC(=S)N/N=C/c1ccc(C(C)C)cc1
growth inhibition, %: -19.6
//
compound: O=c1c(SCc2ccc(Cl)cc2)c(N2CCCCC2)cnn1-c1ccccc1
growth inhibition, %: 20.5
//
compound: CC(N)(Cc1c[nH]c2ccccc12)C(=O)O (stereo unspecified)
growth inhibition, %: -13.3
//
compound: O=C(CCCN1CCC(O)(c2ccc(Cl)cc2)CC1)c1ccc(N2CCC(O)CC2)cc1
growth inhibition, %: 0.8
//
compound: CC(C)CCCCC(C)(C)OC(=O)NC(N)=O
growth inhibition, %: 7.25
//
compound: NC(=O)C1=CCCC1
growth inhibition, %: 6
//
compound: CCC1(N=[N+]=[N-])C(=O)c2ccccc2N(c2ccccc2)C1=O (stereo unspecified)
growth inhibition, %: -13.3
//
compound: CCCCOCCOCCOS(=O)(=O)c1ccc(C)cc1
growth inhibition, %: 11.1
//
compound: CCOC(=O)NC(=O)c1cn(CCN2CCN(C(=O)NCCCCCCNC(=O)N3CCN(CCn4cc(C(=O)NC(=O)OCC)c(=O)n(CCN(CC)CC)c4=O)CC3)CC2)c(=O)n(CCC(CC)CC)c1=O
growth inhibition, %: -10.1
//
compound: Cc1ccc(S(=O)(=O)Nc2ccccc2)cc1
growth inhibition, %: 18
//
compound: NCCCNCCCCNC(=O)C(O)NC(=O)CC(O)CCCCN=C(N)N (stereo unspecified)
growth inhibition, %: -1.45
//
compound: O=C1CCSC(=S)N1c1ccc(F)cc1F
growth inhibition, %: 18
//
compound: CC(C)CCCC(C)C1CCC2C3CC=C4CC(OP(=O)(N5CC5)N5CC5)CCC4(C)C3CCC12C (stereo unspecified)
growth inhibition, %: 26.8
//
compound: CN1C(=O)C(O)C[C@@H]1c1ccc(F)cc1 (stereo partly specified)
growth inhibition, %: -5
